Target or system: D(3) dopamine receptor (Homo sapiens, UniProt P35462)
Sequence (P35462 whole entry): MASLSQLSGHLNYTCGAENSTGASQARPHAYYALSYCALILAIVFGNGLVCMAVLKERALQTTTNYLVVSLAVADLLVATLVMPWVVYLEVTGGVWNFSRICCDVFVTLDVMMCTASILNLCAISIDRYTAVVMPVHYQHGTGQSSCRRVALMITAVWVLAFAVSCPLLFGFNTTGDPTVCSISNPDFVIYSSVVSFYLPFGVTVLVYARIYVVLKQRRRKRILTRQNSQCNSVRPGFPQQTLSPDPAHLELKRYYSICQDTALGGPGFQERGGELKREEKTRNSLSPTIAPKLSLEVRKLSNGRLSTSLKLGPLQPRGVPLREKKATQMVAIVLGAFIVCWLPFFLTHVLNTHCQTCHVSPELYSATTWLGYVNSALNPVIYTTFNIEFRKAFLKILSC
pKi: −log10 of the molar value.
Parameter: pKi

* CCc1c(C)c2n(c1C)[B-](F)(F)[N+]1=C3C=CC=C(NCCCCN4CCN(c5ccccc5OC)CC4)N3[B-](F)(F)[N+]1=C2 | 7.46

---

Species: Homo sapiens
Experiment: Ratio of Ki for binding affinity to D2S (unknown origin) to Ki for binding affinity to D3R (unknown origin)
Please note: TRUE applies when Ratio Ki is 9 or greater, and FALSE applies otherwise.

* CCc1c(C)c2n(c1C)[B-](F)(F)[N+]1=C3C=CC=C(NCCCCN4CCN(c5ccccc5OC)CC4)N3[B-](F)(F)[N+]1=C2 | TRUE
* COc1ccccc1N1CCN(CCCCNC2=CC=CC3=[N+]4[N+](=Cc5c(C)cc(C)n5[B-]4(F)F)[B-](F)(F)N23)CC1 | FALSE
* Cc1cc(C)n2c1C=[N+]1[N+](=C3C=CC=C(NCCCCN4CCN(c5cccc(Cl)c5Cl)CC4)N3[B-]1(F)F)[B-]2(F)F | TRUE
* COc1ccccc1N1CCN(CCCCNC2=CC=CC3=[N+]4[N+](=Cc5cc6ccccc6n5[B-]4(F)F)[B-](F)(F)N23)CC1 | TRUE

This collection of values is drawn from ChEMBL document CHEMBL5131451.
